ASSAYED_TARGET: HiBit-BRG1 fusion protein (Homo sapiens, UniProt P51532)
Construct: expressed in transfected cells
Sequence (P51532 whole entry, the tested form may be a part): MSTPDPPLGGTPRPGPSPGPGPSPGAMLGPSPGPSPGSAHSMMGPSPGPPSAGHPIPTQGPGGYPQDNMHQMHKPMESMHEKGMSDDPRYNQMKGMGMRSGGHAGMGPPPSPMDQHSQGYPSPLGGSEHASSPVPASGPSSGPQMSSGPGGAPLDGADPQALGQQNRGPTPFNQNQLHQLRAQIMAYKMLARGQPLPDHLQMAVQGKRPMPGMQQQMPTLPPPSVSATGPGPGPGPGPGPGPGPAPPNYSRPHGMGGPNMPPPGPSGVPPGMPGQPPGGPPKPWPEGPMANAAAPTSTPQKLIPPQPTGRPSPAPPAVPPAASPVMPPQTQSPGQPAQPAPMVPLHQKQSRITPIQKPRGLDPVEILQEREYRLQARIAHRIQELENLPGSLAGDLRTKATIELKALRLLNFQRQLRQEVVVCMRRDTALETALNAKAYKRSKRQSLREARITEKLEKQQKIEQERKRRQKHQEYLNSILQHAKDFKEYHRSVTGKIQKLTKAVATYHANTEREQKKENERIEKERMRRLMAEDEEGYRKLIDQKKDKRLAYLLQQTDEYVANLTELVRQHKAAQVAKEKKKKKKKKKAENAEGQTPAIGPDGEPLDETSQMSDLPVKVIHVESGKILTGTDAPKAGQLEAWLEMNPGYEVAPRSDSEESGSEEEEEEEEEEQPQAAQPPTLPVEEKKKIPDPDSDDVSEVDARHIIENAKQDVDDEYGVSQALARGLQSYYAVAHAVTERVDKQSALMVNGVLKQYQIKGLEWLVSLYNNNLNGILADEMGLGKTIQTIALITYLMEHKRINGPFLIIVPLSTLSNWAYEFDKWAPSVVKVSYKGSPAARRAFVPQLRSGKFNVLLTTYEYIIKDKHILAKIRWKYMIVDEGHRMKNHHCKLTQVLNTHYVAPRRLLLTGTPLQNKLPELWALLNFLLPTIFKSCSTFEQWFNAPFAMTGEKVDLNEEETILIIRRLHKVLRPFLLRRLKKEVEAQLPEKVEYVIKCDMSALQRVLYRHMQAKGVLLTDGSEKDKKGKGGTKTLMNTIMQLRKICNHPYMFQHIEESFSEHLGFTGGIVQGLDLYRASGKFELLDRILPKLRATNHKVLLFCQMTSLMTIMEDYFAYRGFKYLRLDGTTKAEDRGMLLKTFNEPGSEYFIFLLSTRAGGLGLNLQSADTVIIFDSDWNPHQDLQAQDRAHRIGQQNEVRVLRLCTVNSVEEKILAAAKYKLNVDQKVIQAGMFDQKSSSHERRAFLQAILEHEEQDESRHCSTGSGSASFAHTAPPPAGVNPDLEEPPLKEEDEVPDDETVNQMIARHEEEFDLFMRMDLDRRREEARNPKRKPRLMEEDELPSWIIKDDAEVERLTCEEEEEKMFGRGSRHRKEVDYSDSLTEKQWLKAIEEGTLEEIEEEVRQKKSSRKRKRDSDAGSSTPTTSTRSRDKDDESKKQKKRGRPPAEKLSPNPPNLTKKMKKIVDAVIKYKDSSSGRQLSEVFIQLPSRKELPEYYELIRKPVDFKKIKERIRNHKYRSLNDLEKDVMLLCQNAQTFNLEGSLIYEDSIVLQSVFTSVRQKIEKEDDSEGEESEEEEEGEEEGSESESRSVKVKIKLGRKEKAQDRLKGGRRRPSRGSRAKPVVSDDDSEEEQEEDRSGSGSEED
TEST_METHOD_NOTES: HiBiT-BRG1 cell-based degradation assay (Nano-Glo HiBiT Lytic Detection, 24 h)
CONDITIONS: HeLa cell line expressing HiBit-BRG1 and LgBit, read-out: BRG1 HiBit Degradation Maximum (%)
// values below are reported Dmax

See these solved cases before continuing.
MOLECULE	ASSAYED_TARGET	Dmax
Cc1ncsc1-c1ccc([C@H](C)NC(=O)[C@@H]2C[C@@H](O)CN2C(=O)[C@@H](c2cc(OCC(=O)N[C@H]3CCc4[nH]c5nnc(-c6ccccc6O)cc5c4C3)no2)C(C)C)cc1 (single isomer, unassigned)	HiBit-BRG1 fusion protein (Homo sapiens, UniProt P51532)	< 50%
Cc1ncsc1-c1ccc(CNC(=O)[C@@H]2C[C@@H](O)CN2C(=O)[C@@H](NC(=O)CCCCCCCCCCCCC(=O)N2CC(c3cc4cc(-c5ccccc5O)nnc4[nH]3)C2)C(C)(C)C)cc1	HiBit-BRG1 fusion protein (Homo sapiens, UniProt P51532)	< 50%
Cc1ncsc1-c1ccc([C@H](C)NC(=O)[C@@H]2C[C@@H](O)CN2C(=O)[C@H](c2cc(OCCN3CC(c4cc5cc(-c6ccccc6O)nnc5[nH]4)C3)no2)C(C)C)cn1 (single isomer, unassigned)	HiBit-BRG1 fusion protein (Homo sapiens, UniProt P51532)	< 50%

Shift focus to the following entry.
Q) Record request: Dmax value, item Cc1ncsc1-c1ccc([C@H](C)NC(=O)[C@@H]2C[C@@H](O)CN2C(=O)[C@@H](c2cc(OCCN3CCC(c4cc5cc(-c6ccccc6O)nnc5[nH]4)CC3)no2)C(C)C)cc1 (racemic)
A) > 50%

---

ASSAYED_TARGET: HiBit-BRM fusion protein (Homo sapiens)
Construct: expressed in transfected cells
Sequence (P51531 whole entry, the tested form may be a part): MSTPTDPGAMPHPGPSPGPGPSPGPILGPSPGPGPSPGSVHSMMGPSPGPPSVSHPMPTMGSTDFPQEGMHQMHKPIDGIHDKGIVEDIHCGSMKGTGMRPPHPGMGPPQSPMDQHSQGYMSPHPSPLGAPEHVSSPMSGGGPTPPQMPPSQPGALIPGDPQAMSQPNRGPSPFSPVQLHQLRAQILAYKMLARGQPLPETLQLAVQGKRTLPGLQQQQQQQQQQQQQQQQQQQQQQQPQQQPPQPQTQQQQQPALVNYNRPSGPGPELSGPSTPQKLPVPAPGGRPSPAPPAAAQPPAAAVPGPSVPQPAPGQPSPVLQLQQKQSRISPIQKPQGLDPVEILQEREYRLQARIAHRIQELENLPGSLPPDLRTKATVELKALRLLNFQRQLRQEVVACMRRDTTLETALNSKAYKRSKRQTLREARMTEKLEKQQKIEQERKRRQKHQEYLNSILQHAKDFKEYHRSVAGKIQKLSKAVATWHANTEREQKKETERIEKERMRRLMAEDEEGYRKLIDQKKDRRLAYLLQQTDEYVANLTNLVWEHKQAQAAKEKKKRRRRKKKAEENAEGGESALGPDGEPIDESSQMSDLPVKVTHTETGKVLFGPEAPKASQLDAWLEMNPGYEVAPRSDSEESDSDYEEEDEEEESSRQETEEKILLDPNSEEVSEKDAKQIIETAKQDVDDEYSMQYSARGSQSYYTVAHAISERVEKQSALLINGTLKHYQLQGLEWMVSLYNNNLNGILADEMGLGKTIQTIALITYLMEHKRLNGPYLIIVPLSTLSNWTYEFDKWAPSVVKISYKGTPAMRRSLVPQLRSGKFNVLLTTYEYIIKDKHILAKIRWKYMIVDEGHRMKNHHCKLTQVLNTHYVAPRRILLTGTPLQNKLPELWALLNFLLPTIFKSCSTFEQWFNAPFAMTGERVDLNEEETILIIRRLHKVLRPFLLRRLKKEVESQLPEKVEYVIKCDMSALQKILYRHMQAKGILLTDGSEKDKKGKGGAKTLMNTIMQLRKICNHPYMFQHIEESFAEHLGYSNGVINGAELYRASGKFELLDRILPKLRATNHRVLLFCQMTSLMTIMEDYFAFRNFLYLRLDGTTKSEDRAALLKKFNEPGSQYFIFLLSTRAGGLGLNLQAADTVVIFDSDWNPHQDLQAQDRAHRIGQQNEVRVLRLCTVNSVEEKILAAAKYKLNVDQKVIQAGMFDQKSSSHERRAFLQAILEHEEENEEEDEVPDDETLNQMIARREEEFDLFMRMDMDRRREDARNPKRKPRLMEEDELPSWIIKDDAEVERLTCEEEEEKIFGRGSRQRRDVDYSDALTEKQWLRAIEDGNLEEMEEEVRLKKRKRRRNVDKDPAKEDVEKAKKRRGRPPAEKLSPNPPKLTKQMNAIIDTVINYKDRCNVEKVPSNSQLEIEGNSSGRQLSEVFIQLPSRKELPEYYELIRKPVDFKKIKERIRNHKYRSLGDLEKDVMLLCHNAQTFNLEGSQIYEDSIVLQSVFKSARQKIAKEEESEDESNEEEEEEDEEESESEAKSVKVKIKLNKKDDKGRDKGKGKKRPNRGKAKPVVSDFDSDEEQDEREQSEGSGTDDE
TEST_METHOD_NOTES: HiBiT-BRM cell-based degradation assay (Nano-Glo HiBiT Lytic Detection, 24 h)
CONDITIONS: HeLa cell line expressing HiBiT-BRM, read-out: BRM HiBit Degradation IC50
Method: Procedure: A stable HeLa cell line expressing HiBiT-BRM was generated. On day 0, 5000 cells were seeded in 40 μL of media into each well of 384-well cell culture plates. […] The plates were shaken for 10 minutes at room temperature and the bioluminescence read using an EnVision plate reader (PerkinElmer). The degradation % was calculated using the following formula: % degradation=100%−100%×(LumSample−LumLC)/(LumHC−LumLC). […]
PARAMETER_MEASURED: DC50

COMPOUND	ASSAYED_TARGET	DC50
Cc1ncsc1-c1ccc([C@H](C)NC(=O)[C@@H]2C[C@@H](O)CN2C(=O)[C@@H](c2cc(N3CCN(CC45CC(c6cc7cc(-c8ccccc8O)nnc7[nH]6)(C4)C5)CC3)no2)C(C)C)cc1 (single isomer, unassigned)	HiBit-BRM fusion protein (Homo sapiens)	> 0.01 µM

Q) Would you kindly share the measured DC50 for Cc1ncsc1-c1ccc([C@H](C)NC(=O)[C@@H]2C[C@@H](O)CN2C(=O)[C@@H](c2cc(OCCNCC34CC(c5cc6cc(-c7ccccc7O)nnc6[nH]5)(C3)C4)no2)C(C)C)cc1 (racemic) ?
A) > 0.01 µM

Q) Sample Cc1ncsc1-c1ccc(CNC(=O)[C@@H]2C[C@@H](O)CN2C(=O)[C@@H](NC(=O)CCCC(=O)N2CC(c3cc4cc(-c5ccccc5O)nnc4[nH]3)C2)C(C)(C)C)cc1 — what was its DC50?
A) > 1 µM

Q) Which value of DC50 has been reported for Cc1ncsc1-c1ccc([C@H](C)NC(=O)[C@@H]2C[C@@H](O)CN2C(=O)[C@@H](c2cc(OCCN3CC(c4[nH]c5nnc(-c6ccccc6O)cc5c4F)C3)no2)C(C)C)cc1 (racemic) in the records?
A) > 0.1 µM
